- Tested on: CYP2B
- measurement_protocol: IC50-shift experiment, CYP2B in RLMs
- Type: in vitro ADME
- conditions: rat, rat liver microsomes, probe bupropion, 30 min preincubation with 1.0 mM NADPH, bupropion 20 μM
value_kind: IC50 at 30 min

| molecule | value_kind | result |
| --- | --- | --- |
| Cc1ccc(Sc2ccccc2N2CCNCC2)c(C)c1 [vortioxetine] | IC50 at 30 min | 5.3 µM |

---

- target_under_test: CYP2D6 (Homo sapiens, UniProt P10635)
- Sequence (P10635 whole entry): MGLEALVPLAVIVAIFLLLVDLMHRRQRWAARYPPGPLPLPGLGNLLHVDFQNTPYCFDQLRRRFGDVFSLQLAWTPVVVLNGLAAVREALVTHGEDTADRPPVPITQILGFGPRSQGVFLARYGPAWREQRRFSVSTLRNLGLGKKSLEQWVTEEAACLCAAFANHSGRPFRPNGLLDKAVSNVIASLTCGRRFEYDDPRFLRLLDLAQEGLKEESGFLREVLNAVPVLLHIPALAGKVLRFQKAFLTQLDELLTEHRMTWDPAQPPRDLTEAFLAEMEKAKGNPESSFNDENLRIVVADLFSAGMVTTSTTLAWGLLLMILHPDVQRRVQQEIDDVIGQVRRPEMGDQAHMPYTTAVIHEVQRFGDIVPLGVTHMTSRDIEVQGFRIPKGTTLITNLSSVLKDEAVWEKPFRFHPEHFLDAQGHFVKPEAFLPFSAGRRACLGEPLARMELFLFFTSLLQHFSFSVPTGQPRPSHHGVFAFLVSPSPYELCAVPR
- measurement_protocol: IC50-shift experiment, CYP2D6 in HLMs
- Type: in vitro ADME
- Parameters: 0.20 mg/mL HLMs or 0.20 mg/mL RLMs; from tissue; host or cells: human liver microsomes
- conditions: human, human liver microsomes, probe dextromethorphan (10 μM), ratio IC50 (−) NADPH to IC50 (+) NADPH, read-out: IC50 fold shift
- Method: The components of the incubation system were as follows: 0.20 mg/mL HLMs or 0.20 mg/mL RLMs, 0.1 M Tris-HCl, vortioxetine, and the probe substrates of each enzyme. […] IC50-shift was used to investigate whether the drug produced time-dependent inhibition (TDI) of the enzyme. […] During the experiment, the individual substrates midazolam (4 μM), bupropion (40 μM), amodiaquine (3 μM), losartan (8 μM), mephenytoin (90 μM), and dextromethorphan (10 μM) were determined with vortioxetine IC50-shift in HLMs. […]

| molecule | IC50 shift at 30 min |
| --- | --- |
| Cc1ccc(Sc2ccccc2N2CCNCC2)c(C)c1 [vortioxetine] | 1.06 |

---

- target_under_test: CYP2C19 (Homo sapiens)
- measurement_protocol: IC50-shift experiment, CYP2C19 in HLMs
- Type: in vitro ADME
- Set-up: 0.20 mg/mL HLMs or 0.20 mg/mL RLMs; from tissue; host or cells: human liver microsomes
- conditions: human, human liver microsomes, probe mephenytoin (90 μM), CYP2C19, ratio IC50 (−) NADPH to IC50 (+) NADPH, read-out: IC50 fold shift

| mol | IC50 shift at 30 min |
| --- | --- |
| Cc1ccc(Sc2ccccc2N2CCNCC2)c(C)c1 | 2.08 |

---

- Test system: CYP2C-3
- measurement_protocol: IC50 of vortioxetine on CYP2C-3 (mephenytoin) in RLMs
- Type: in vitro ADME
- conditions: rat, rat liver microsomes, probe mephenytoin, inhibitory effect (strength judged by IC50), RLMs

| mol | target_under_test | IC50 at 30 min |
| --- | --- | --- |
| Cc1ccc(Sc2ccccc2N2CCNCC2)c(C)c1 | CYP2C-3 | > 10 µM |

---

- Tested on: CYP2D
- measurement_protocol: Reversible inhibition kinetics (Lineweaver-Burk), CYP2D in RLMs
- Type: in vitro ADME, rat
- conditions: rat, rat liver microsomes, probe dextromethorphan
value_kind: Ki at 30 min (µM)

| compound | value_kind | numeric_readout |
| --- | --- | --- |
| Cc1ccc(Sc2ccccc2N2CCNCC2)c(C)c1 [vortioxetine] | Ki at 30 min | 101 |

---

- System: CYP2C-3
- measurement_protocol: IC50-shift experiment, CYP2C-3 in RLMs
- Type: in vitro ADME
- conditions: rat, rat liver microsomes, probe mephenytoin, 30 min preincubation with 1.0 mM NADPH, mephenytoin 400 μM

| mol | measurement_units | IC50 at 30 min |
| --- | --- | --- |
| Cc1ccc(Sc2ccccc2N2CCNCC2)c(C)c1 | µM | 5.21 |

---

- target_under_test: CYP3A4 (Homo sapiens, UniProt P08684)
- Sequence (P08684 whole entry): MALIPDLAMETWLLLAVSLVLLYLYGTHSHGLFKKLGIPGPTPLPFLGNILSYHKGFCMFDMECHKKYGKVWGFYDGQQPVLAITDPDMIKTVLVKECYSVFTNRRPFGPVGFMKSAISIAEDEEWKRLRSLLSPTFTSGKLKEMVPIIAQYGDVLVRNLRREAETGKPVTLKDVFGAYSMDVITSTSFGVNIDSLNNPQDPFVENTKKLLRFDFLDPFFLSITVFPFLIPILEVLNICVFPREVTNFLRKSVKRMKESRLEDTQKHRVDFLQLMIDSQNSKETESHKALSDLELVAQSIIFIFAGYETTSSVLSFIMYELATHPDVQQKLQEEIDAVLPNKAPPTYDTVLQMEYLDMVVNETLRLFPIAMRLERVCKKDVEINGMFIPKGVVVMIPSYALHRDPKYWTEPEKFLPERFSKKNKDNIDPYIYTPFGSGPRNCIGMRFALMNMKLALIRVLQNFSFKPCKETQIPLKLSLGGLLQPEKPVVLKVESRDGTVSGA
pKi: −log10 of the molar value.
value_kind: pKi

| mol | value_kind | numeric_readout |
| --- | --- | --- |
| Cc1ccc(Sc2ccccc2N2CCNCC2)c(C)c1 | pKi | 5.14 |

---

- System: CYP2C-1
- measurement_protocol: IC50-shift experiment, CYP2C-1 in RLMs
- Assay type: in vitro ADME, rat
- conditions: rat, rat liver microsomes, probe amodiaquine, ratio IC50 (−) NADPH to IC50 (+) NADPH, read-out: IC50 fold shift

| mol | target_under_test | IC50 shift at 30 min |
| --- | --- | --- |
| Cc1ccc(Sc2ccccc2N2CCNCC2)c(C)c1 | CYP2C-1 | 1.98 |

---

- target_under_test: CYP2C8 (Homo sapiens)
- Sequence (P10632 1-490): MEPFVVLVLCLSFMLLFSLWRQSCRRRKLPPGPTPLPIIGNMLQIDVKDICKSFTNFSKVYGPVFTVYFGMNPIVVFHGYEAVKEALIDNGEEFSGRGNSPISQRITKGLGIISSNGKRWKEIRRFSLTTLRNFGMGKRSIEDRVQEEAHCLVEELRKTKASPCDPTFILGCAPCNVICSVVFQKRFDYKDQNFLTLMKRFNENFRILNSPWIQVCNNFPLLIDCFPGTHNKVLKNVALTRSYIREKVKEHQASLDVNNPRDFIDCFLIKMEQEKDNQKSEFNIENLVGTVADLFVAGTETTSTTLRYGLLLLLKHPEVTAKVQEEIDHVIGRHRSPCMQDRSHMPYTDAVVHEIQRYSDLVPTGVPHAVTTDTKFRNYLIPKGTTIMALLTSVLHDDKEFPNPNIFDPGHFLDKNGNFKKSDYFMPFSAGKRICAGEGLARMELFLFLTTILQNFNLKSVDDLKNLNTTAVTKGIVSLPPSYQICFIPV
value_kind: Ki (µM)

| mol | value_kind | numeric_readout |
| --- | --- | --- |
| Cc1ccc(Sc2ccccc2N2CCNCC2)c(C)c1 | Ki | 6.96 |

---

- Test system: CYP2C-1
- measurement_protocol: IC50-shift experiment, CYP2C-1 in RLMs
- Type: in vitro ADME, rat
- conditions: 30 min preincubation without NADPH, amodiaquine 20 μM
pIC50: −log10 of the molar value.

| mol | pIC50 |
| --- | --- |
| Cc1ccc(Sc2ccccc2N2CCNCC2)c(C)c1 | 4.70 |

---

- target_under_test: CYP3A4 (Homo sapiens)
- measurement_protocol: IC50-shift experiment, CYP3A4 in HLMs
- Assay type: in vitro ADME
- Parameters: 0.20 mg/mL HLMs or 0.20 mg/mL RLMs; from tissue; host or cells: human liver microsomes
- conditions: 30 min preincubation without NADPH, midazolam 4 μM
pIC50: −log10 of the molar value.

| mol | target_under_test | pIC50 |
| --- | --- | --- |
| Cc1ccc(Sc2ccccc2N2CCNCC2)c(C)c1 | CYP3A4 (Homo sapiens) | 4.81 |

---

- target_under_test: UniProt:P10635
- measurement_protocol: IC50-shift experiment, CYP2D6 in HLMs
- Format: in vitro ADME
- Parameters: 0.20 mg/mL HLMs or 0.20 mg/mL RLMs; from tissue; host or cells: human liver microsomes
- conditions: 30 min preincubation with 1.0 mM NADPH, dextromethorphan 10 μM
value_kind: IC50

| mol | result |
| --- | --- |
| Cc1ccc(Sc2ccccc2N2CCNCC2)c(C)c1 | 18.4 µM |

---

- System: CYP3A
- measurement_protocol: Reversible inhibition kinetics (Lineweaver-Burk), CYP3A in RLMs
- Assay type: in vitro ADME, rat
- conditions: rat, rat liver microsomes, probe midazolam

| compound | target_under_test | Ki at 30 min |
| --- | --- | --- |
| Cc1ccc(Sc2ccccc2N2CCNCC2)c(C)c1 [vortioxetine] | CYP3A | 4.41 µM |

---

- target_under_test: CYP2C19 (Homo sapiens, UniProt P33261)
- Sequence (P33261 whole entry): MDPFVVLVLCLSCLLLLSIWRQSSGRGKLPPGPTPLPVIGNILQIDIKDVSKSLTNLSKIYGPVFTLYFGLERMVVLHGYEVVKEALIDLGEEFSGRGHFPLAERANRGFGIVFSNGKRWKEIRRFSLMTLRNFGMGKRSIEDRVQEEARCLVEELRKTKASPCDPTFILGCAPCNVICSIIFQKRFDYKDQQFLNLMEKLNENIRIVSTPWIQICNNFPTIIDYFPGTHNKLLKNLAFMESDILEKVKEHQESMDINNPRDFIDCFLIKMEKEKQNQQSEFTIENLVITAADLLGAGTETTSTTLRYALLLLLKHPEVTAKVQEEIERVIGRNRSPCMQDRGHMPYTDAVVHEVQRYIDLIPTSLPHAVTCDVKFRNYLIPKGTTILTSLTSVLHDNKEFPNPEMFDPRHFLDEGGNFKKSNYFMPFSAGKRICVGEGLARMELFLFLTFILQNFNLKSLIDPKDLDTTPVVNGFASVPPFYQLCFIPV
- measurement_protocol: IC50 of vortioxetine on CYP2C19 (mephenytoin) in HLMs
- Format: in vitro ADME
- Parameters: 0.20 mg/mL HLMs; from tissue; host or cells: human liver microsomes
- conditions: HLMs 0.20 mg/mL, mephenytoin at Km, 37°C, 30 min, read-out: IC50

| mol | measurement_units | IC50 |
| --- | --- | --- |
| Cc1ccc(Sc2ccccc2N2CCNCC2)c(C)c1 | nM | 2400 |

---

- target_under_test: CYP2C9 (Homo sapiens)
- Sequence (P11712 whole entry): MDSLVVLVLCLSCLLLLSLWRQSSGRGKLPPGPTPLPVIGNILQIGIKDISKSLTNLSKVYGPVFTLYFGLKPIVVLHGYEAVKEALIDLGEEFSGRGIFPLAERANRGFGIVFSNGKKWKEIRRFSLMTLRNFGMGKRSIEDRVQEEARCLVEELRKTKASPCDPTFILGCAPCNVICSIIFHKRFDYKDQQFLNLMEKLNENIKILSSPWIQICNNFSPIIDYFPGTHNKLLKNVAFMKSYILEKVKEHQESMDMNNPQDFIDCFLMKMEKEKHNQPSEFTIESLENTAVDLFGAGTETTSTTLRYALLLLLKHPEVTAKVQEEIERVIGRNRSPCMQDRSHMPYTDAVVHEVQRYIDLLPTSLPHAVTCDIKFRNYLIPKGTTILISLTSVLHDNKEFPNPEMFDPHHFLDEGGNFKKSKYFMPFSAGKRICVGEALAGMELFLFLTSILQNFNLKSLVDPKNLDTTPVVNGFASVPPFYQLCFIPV
- measurement_protocol: IC50-shift experiment, CYP2C9 in HLMs
- Assay type: in vitro ADME
- Set-up: 0.20 mg/mL HLMs or 0.20 mg/mL RLMs; from tissue; host or cells: human liver microsomes
- conditions: 30 min preincubation without NADPH, losartan 8 μM
- Procedure: The components of the incubation system were as follows: 0.20 mg/mL HLMs or 0.20 mg/mL RLMs, 0.1 M Tris-HCl, vortioxetine, and the probe substrates of each enzyme. […] IC50-shift was used to investigate whether the drug produced time-dependent inhibition (TDI) of the enzyme. […] During the experiment, the individual substrates midazolam (4 μM), bupropion (40 μM), amodiaquine (3 μM), losartan (8 μM), mephenytoin (90 μM), and dextromethorphan (10 μM) were determined with vortioxetine IC50-shift in HLMs. […]

| mol | IC50 |
| --- | --- |
| Cc1ccc(Sc2ccccc2N2CCNCC2)c(C)c1 | 18.6 µM |
